B1: library; a variant is named by its letters at N, in order (parent)
chain: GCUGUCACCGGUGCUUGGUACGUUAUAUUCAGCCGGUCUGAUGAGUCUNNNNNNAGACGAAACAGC

- Variants of: B1
- EXPERIMENTAL PROTOCOL: normalized RNA/DNA level with ligand (relative to sTRSVctl = 100) (log10 (% of sTRSVctl)); HEK293T overexpressing SLC46A1; ligand concentration (+) RNA-Seq: 6 mM; higher = less ribozyme self-cleavage, higher mRNA level
- CONDITIONS: with (6R,S)-folinic acid; ligand present: yes
As shown below, each of these variants has a reported normalized RNA/DNA level with ligand (log10) value.
PROPERTY NAME: normalized RNA/DNA level with ligand (log10)

POLYMER SEQUENCE | REPORTED MEASUREMENT
GCUGUCACCGGUGCUUGGUACGUUAUAUUCAGCCGGUCUGAUGAGUCUGUAGCAAGACGAAACAGC | 2
GCUGUCACCGGUGCUUGGUACGUUAUAUUCAGCCGGUCUGAUGAGUCUAACCAUAGACGAAACAGC | 2
GCUGUCACCGGUGCUUGGUACGUUAUAUUCAGCCGGUCUGAUGAGUCUCCACGGAGACGAAACAGC | 2.04
GCUGUCACCGGUGCUUGGUACGUUAUAUUCAGCCGGUCUGAUGAGUCUUCUUCCAGACGAAACAGC | 2.04
GCUGUCACCGGUGCUUGGUACGUUAUAUUCAGCCGGUCUGAUGAGUCUAUCGAUAGACGAAACAGC | 2.02
GCUGUCACCGGUGCUUGGUACGUUAUAUUCAGCCGGUCUGAUGAGUCUUUUCUAAGACGAAACAGC | 2.04
GCUGUCACCGGUGCUUGGUACGUUAUAUUCAGCCGGUCUGAUGAGUCUGGCUAUAGACGAAACAGC | 2.01
GCUGUCACCGGUGCUUGGUACGUUAUAUUCAGCCGGUCUGAUGAGUCUAGGCUCAGACGAAACAGC | 2.01
GCUGUCACCGGUGCUUGGUACGUUAUAUUCAGCCGGUCUGAUGAGUCUGAAUAUAGACGAAACAGC | 2.02
GCUGUCACCGGUGCUUGGUACGUUAUAUUCAGCCGGUCUGAUGAGUCUGGAGUUAGACGAAACAGC | 2.05
GCUGUCACCGGUGCUUGGUACGUUAUAUUCAGCCGGUCUGAUGAGUCUGUAAAGAGACGAAACAGC | 2
GCUGUCACCGGUGCUUGGUACGUUAUAUUCAGCCGGUCUGAUGAGUCUUCCAACAGACGAAACAGC | 2.06
GCUGUCACCGGUGCUUGGUACGUUAUAUUCAGCCGGUCUGAUGAGUCUUCAAGGAGACGAAACAGC | 2
GCUGUCACCGGUGCUUGGUACGUUAUAUUCAGCCGGUCUGAUGAGUCUCGCGCAAGACGAAACAGC | 2.04

All values here come from the supplement of paper PMC6757056.
